target-of-assay: CIB1 and αIIb interaction (GST-CIB1 : F-αIIb peptide) (Homo sapiens, UniProt Q99828)
Construct: made in house; host or cells: BL-21 plus RIL cells (E. coli)
Sequence (Q99828 1-191): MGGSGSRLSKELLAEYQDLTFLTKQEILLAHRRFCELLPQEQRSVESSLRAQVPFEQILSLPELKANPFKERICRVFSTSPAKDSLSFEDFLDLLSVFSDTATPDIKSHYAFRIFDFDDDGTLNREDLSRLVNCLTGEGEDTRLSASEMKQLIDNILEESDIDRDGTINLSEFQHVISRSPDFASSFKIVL
measurement-protocol: FP assay, 384-well format (screen)
Format: binding
condition-info: F-αIIb peptide; read-out: 384-well SCREEN IC50
List of IC50 values.
experimental-endpoint: IC50 (µM)

O=C(O)c1cccc(CN2C(=O)/C(=C(\c3ccccc3)c3ccc(Cl)cc3)c3ccccc32)c1 : 63.4
Oc1ccc2ccccc2c1SSc1c(O)ccc2ccccc12 [NCGC00186047-02, IPA-3, reference compound] : 1.3
Cc1ccc(S(=O)(=O)Nc2cnccc2C(=O)Nc2nc(-c3ccc(C)c(C)c3)cs2)cc1.O=C(O)C(F)(F)F : 16
CN(C)[C@@H]1CCN(c2cccc(Nc3nn4c(=O)c5ccccc5nc4s3)c2)C1.Cl : 15.8
Cc1ccc(S(=O)(=O)Nc2cnccc2C(=O)Nc2nc(-c3cccc(C)c3)cs2)cc1.O=C(O)C(F)(F)F : 10.1
O=C(Cc1ccc(Cl)c(Cl)c1)Nc1ccc(S(=O)(=O)Nc2ccon2)cc1.O=C(O)C(F)(F)F : 8.9
O=C(O)C1=NC(C(=O)O)CC(/C=C/N2c3cc(O)c(OC4OC(CO)C(O)C(O)C4O)cc3CC2C(=O)O)=C1 (stereo not shown) : 39.8
